// data source = paper PMC7105484

Target: T1, REF6 E1315A (Arabidopsis thaliana, UniProt Q9STM3 1223-1360, E1315A)
T1 sequence: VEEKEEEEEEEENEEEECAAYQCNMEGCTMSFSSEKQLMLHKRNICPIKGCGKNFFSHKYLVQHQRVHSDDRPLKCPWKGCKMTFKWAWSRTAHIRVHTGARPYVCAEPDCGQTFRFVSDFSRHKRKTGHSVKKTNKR
Experiment: MST; MST: 20 mM HEPES pH 7.3, 150 mM NaCl, 0.2 mM TCEP, 0.5% CA-630, 25 C; EMSA: 30 uM protein, 10 uM dsDNA, 20 mM Tris pH 8.0, 100 mM NaCl, 2.5 mM MgCl2, 0.1% CA-630, 10% glycerol, 1 uM ZnSO4, 1 mM DTT, 4 C
Conditions: protein: recombinant; tags: His6-MBP or GST, TEV-cleavable; label: FAM in MST; none in crystal and EMSA; 5' overhang 1 nt on both strands, 15 bp
pKd: −log10 of the molar value.
recorded_metric: pKd

binder: NAC004 m5 (dsDNA) DNA 1: CTTTCTCTGTTTTGTC DNA 2: GGACAAAACAGAGAAA
recorded_metric: pKd
result: 5.43
